Recorded measurements of selectivity ratio at 30 min, one per entry
# assayed.target: ABCB1 / ABCG2 (Homo sapiens)
# Sequence (Q9UNQ0 whole entry): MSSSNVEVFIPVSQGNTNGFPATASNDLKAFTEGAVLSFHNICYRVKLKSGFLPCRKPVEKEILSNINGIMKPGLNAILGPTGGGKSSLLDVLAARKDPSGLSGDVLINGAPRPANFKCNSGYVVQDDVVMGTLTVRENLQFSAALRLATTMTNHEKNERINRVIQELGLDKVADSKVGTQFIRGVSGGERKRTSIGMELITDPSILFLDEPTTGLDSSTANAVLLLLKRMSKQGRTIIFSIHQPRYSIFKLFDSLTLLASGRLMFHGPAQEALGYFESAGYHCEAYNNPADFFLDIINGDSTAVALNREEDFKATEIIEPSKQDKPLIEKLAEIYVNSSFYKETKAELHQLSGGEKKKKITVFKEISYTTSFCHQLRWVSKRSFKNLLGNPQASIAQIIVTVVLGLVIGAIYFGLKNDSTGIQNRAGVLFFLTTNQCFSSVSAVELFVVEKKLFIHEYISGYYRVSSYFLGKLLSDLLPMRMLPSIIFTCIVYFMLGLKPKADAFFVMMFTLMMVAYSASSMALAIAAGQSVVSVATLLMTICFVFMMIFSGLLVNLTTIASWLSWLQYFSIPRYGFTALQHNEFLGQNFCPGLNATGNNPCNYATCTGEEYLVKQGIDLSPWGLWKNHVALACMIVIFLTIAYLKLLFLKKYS
# assay.name: JC-1 efflux inhibition dose response, flow cytometry, Ig-MXP3 cells
# experimental.context: human, probe JC-1 (1 µM), ~Fold G2 Selective (B1/G2), quotient of average ABCB1 IC50 and average ABCG2 IC50, efflux assay
Please give the numeric answer without any surrounding text.

selectivity ratio at 30 min recorded for this compound, O=C(c1cccnc1)N1CCN(c2cc(-c3ccccc3)nc3cc(-c4cccc(Cl)c4)nn23)CC1 , is 2.5

What the record says about COc1ccc(-c2cc3nc(-c4ccccc4)cc(N4CCN(C(=O)c5ccoc5)CC4)n3n2)cc1 : selectivity ratio at 30 min is 1.2

Recorded selectivity ratio at 30 min (compound COc1cccc(-c2cc3nc(-c4ccccc4)cc(N4CCN(C(=O)c5ccco5)CC4)n3n2)c1 ): 3.4

Looking up CC(C)(C)c1cc2nc(-c3ccco3)cc(N3CCN(C(=O)c4ccoc4)CC3)n2n1 , I see its selectivity ratio at 30 min listed as 1.7
